# System: 253994-281-T-J1-PDC KRAS-mutant spheroids with HUVEC/MSC, viability
# assayProtocol: Anticancer human tumor 253994-281-T-J1-PDC patient-derived colorectal carcinoma cell line growth inhibition [KRAS2]
# measurementContext: curve of first compound; second compound 0.316 µM
pIC50: −log10 of the molar value.
Collected pIC50 values appear next to each entry.

Sample records with pIC50:
CC(C)n1nc(-c2ccc3oc(N)nc3c2)c2c(N)ncnc21 + C=CC(=O)N1CCN(c2nc(=O)n(-c3c(C)ccnc3C(C)C)c3nc(-c4c(O)cccc4F)c(F)cc23)C(C)C1; < 7.00
O=C(c1cc(Cc2n[nH]c(=O)c3ccccc23)ccc1F)N1CCN(C(=O)C2CC2)CC1 + C=CC(=O)N1CCN(c2nc(=O)n(-c3c(C)ccnc3C(C)C)c3nc(-c4c(O)cccc4F)c(F)cc23)C(C)C1; < 5.00
CC(=O)OC12COC1CC(O)C1(C)C(=O)C(O)C3=C(C)C(OC(=O)C(O)C(NC(=O)OC(C)(C)C)c4ccccc4)CC(O)(C(OC(=O)c4ccccc4)C21)C3(C)C (stereo not given) + COc1cc2nc(C)nc(NC(C)c3cc(N)cc(C(F)(F)F)c3)c2cc1OC1CCOC1; > 8.00

pIC50 on 253994-281-T-J1-PDC KRAS-mutant spheroids with HUVEC/MSC, viability for CC(C)NCC(C(=O)N1CCN(c2ncnc3c2C(C)CC3O)CC1)c1ccc(Cl)cc1 (stereo not given) + C=CC(=O)N1CCN(c2nc(=O)n(-c3c(C)ccnc3C(C)C)c3nc(-c4c(O)cccc4F)c(F)cc23)C(C)C1 is < 5.00

pIC50 on 253994-281-T-J1-PDC KRAS-mutant spheroids with HUVEC/MSC, viability for CC(C)n1nc(-c2ccc3oc(N)nc3c2)c2c(N)ncnc21 + CC1OCC2(CCN(c3cnc(Sc4ccnc(N)c4Cl)c(N)n3)CC2)C1N is < 7.00

---

# Tested on: 253994-281-T-J1-PDC KRAS-mutant spheroids with HUVEC/MSC, viability
# assayProtocol: Anticancer human tumor 253994-281-T-J1-PDC cell line growth inhibition [KRAS2];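 note: spheroids exposed to agents for seven days before readout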;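 for viability, T/C: percent of DMSO vehicle control viability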
# measurementContext: second compound 1 µM; first compound 0.0316 µM; stronger effect = lower value
Lab note: cut-off is 80%. Strictly less in viability, T/C is yes. Exactly 80% or more is no.

Use these answered entries as a reference point.
Cn1ncnc1[C@H]1c2n[nH]c(=O)c3cc(F)cc(c23)N[C@@H]1c1ccc(F)cc1 + CNCc1ccccc1-c1csc(C(C)Nc2nc(C)nc3cc(OC)c(OC)cc23)c1; no
COc1cc2nccc(Oc3ccc(NC(=O)C4(C(=O)Nc5ccc(F)cc5)CC4)cc3)c2cc1OC + CC1OCC2(CCN(c3cnc(Sc4ccnc(N)c4Cl)c(N)n3)CC2)C1N; yes
CC(C)NCC(C(=O)N1CCN(c2ncnc3c2C(C)CC3O)CC1)c1ccc(Cl)cc1 (stereo not given) + COc1cc2nc(C)nc(NC(C)c3cc(N)cc(C(F)(F)F)c3)c2cc1OC1CCOC1; no
CC1(C)CCC(CN2CCN(c3ccc(C(=O)NS(=O)(=O)c4ccc(NCC5CCOCC5)c([N+](=O)[O-])c4)c(Oc4cnc5[nH]ccc5c4)c3)CC2)=C(c2ccc(Cl)cc2)C1 + CNCc1ccccc1-c1csc(C(C)Nc2nc(C)nc3cc(OC)c(OC)cc23)c1; no

We next turn to a different molecule, shown below.
Query :: Would you kindly verify if viability, T/C of CC(=O)OC12COC1CC(O)C1(C)C(=O)C(O)C3=C(C)C(OC(=O)C(O)C(NC(=O)OC(C)(C)C)c4ccccc4)CC(O)(C(OC(=O)c4ccccc4)C21)C3(C)C (stereo not given) + C=CC(=O)N1CCN(c2nc(=O)n(-c3c(C)ccnc3C(C)C)c3nc(-c4c(O)cccc4F)c(F)cc23)C(C)C1 is strictly less than 80%?
Result :: yes

This collection of values is drawn from PubChem BioAssay AID1963874.
